Measured values drawn from ChEMBL document CHEMBL4368907 for this set.

molecular target: Cholecystokinin receptor type A (Homo sapiens); test: Agonist activity at human CCK1R expressed in human 1321N1 cells assessed as IP1 accumulation after 1 hr by HTRF assay; type: functional, cell-based
Sequence (P32238 whole entry): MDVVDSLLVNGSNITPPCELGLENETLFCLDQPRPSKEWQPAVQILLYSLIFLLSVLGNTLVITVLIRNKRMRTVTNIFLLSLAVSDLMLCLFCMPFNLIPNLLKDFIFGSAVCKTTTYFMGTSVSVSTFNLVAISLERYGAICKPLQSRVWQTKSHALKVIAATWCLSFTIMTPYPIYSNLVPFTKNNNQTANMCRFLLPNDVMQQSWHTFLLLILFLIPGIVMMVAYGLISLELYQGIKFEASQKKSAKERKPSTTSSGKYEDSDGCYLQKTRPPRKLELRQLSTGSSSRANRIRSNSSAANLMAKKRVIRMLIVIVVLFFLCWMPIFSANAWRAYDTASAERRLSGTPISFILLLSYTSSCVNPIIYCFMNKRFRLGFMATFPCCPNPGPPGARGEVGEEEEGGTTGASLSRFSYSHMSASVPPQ
Numbered stars: 1 amine (or outer) side, 2 acyl side, 3 side chain; on linkers, the order of the positions; unused ones are H or OH. Square brackets hold non-standard residues; d marks the D form. Side chains are listed from the residue outwards. Peptide text beside a SMILES is read from it. * marks the point of attachment. Ala(indol-2-yl) = N[C@@H](Cc1cc2ccccc2[nH]1)C(=O)O; sY = N[C@@H](Cc1ccc(OS(=O)(=O)O)cc1)C(=O)O; C18 diacid = O=C(O)CCCCCCCCCCCCCCCCC(=O)*; γGlu = O=C(O)[C@H](CCC(=O)[*:2])N[*:1]; NMeF = CN[C@@H](Cc1ccccc1)C(=O)O; NMeD = CN[C@@H](CC(=O)O)C(=O)O; Nle = CCCC[C@H](N)C(=O)O; X1 = O=C(Cc1ccc(O)cc1)*; AEEA = NCCOCCOCC(=O)O
readout: pEC50

# example entries with known answers
Task item: Field request: pEC50 | item: CCCC[C@H](NC(=O)[C@H](Cc1c[nH]c2ccccc12)NC(=O)CNC(=O)[C@H](CCCCNC(=O)COCCOCCNC(=O)COCCOCCNC(=O)CC[C@H](NC(=O)CCCCCCCCCCCCCCCCC(=O)O)C(=O)O)NC(=O)Cc1ccc(O)cc1)C(=O)N(C)[C@@H](CC(=O)O)C(=O)N(C)[C@@H](Cc1ccccc1)C(N)=O (X1-K([AEEA-AEEA-γGlu-C18 diacid])GW[Nle][NMeD][NMeF]-NH2)
Reply: 9.8

Task item: Form field: reported pEC50 of CCCC[C@H](NC(=O)[C@H](Cc1c[nH]c2ccccc12)NC(=O)CNC(=O)[C@H](CC(C)C)NC(=O)[C@H](Cc1c[nH]c2ccccc12)NC(=O)[C@H](CC(=O)O)NC(=O)COCCOCCNC(=O)COCCOCCNC(=O)CC[C@H](NC(=O)CCCCCCCCCCCCCCCCC(=O)O)C(=O)O)C(=O)N(C)[C@@H](CC(=O)O)C(=O)N(C)[C@@H](Cc1ccccc1)C(N)=O ({C18 diacid-γGlu-AEEA-AEEA}-DWLGW[Nle][NMeD][NMeF]-NH2)
Reply: 9.67

Task item: Entry CC(C)C[C@H](NC(=O)[C@H](Cc1ccc(OS(=O)(=O)O)cc1)NC(=O)[C@H](CC(=O)O)NC(=O)COCCOCCNC(=O)COCCOCCNC(=O)CC[C@H](NC(=O)CCCCCCCCCCCCCCCCC(=O)O)C(=O)O)C(=O)NCC(=O)N[C@@H](Cc1c[nH]c2ccccc12)C(=O)N[C@@H](Cc1ccccc1)C(=O)N(C)[C@@H](CC(=O)O)C(=O)N(C)[C@@H](Cc1ccccc1)C(N)=O ({C18 diacid-γGlu-AEEA-AEEA}-D[sY]LGWF[NMeD][NMeF]-NH2) has what pEC50?
Reply: 8.79

Task item: State the recorded pEC50 for this entry: CCCC[C@H](NC(=O)[C@H](Cc1c[nH]c2ccccc12)NC(=O)CNC(=O)[C@H](CC(C)C)NC(=O)[C@@H](NC(=O)[C@H](CC(=O)O)NC(=O)COCCOCCNC(=O)COCCOCCNC(=O)CC[C@H](NC(=O)CCCCCCCCCCCCCCCCC(=O)O)C(=O)O)[C@@H](C)CC)C(=O)N(C)[C@@H](CC(=O)O)C(=O)N(C)[C@@H](Cc1ccccc1)C(N)=O ({C18 diacid-γGlu-AEEA-AEEA}-DILGW[Nle][NMeD][NMeF]-NH2)
Reply: 9.41

New cases:
Task item: Need pEC50, item CCCC[C@H](NC(=O)[C@H](Cc1cc2ccccc2[nH]1)NC(=O)CNC(=O)[C@H](CCCCNC(=O)COCCOCCNC(=O)COCCOCCNC(=O)CC[C@H](NC(=O)CCCCCCCCCCCCCCCCC(=O)O)C(=O)O)NC(=O)[C@H](Cc1ccc(OS(=O)(=O)O)cc1)NC(=O)[C@H](CC(=O)O)NC(C)=O)C(=O)N(C)[C@@H](CC(=O)O)C(=O)N(C)[C@@H](Cc1ccccc1)C(N)=O (Ac-D[sY]K([AEEA-AEEA-γGlu-C18 diacid])G[Ala(indol-2-yl)][Nle][NMeD][NMeF]-NH2)
Reply: 9.61
